# assay.summary: yeast display, Sf9 membrane polyspecificity reagent, FACS + sequencing; frameworks hold sequencing errors
measured.parameter: polyreactivity (PSR sort gate)

* QVQLVESGGGLVQAGVRLRLSCAASGITFYINAMGGYRQAPGKERELVAVIDSRGSSTFYADSVKGRFTISRDTAKNTVYLQMNSLKPEDTAVYYCAAEAPSWYDRQYDYCGQGTQVTVSS | low polyreactivity
* QVQLVESGGGLVQAGGSLRLSCAASGRIFGRYAMGWYRQEPGKERELVASISWSGDSTYYADSVKGRFTISRDNAKNTVYLQMNSLKPEDTAVYYCNADPFIRTWYNYGYWGQGTQVTVSS | low polyreactivity
* QVQLVESGGGLVQAGGSLRLSCAASGFTLYYYDKGWYRQSPGKERELVAAISYSGGTTYYADSVKGRFTISRDNAKNTVYLQMNSLNPDDTAVYYCAAEVGGYWADEYLGYDYWGLGTQVTVSS | low polyreactivity

* * *

# assay.summary: yeast display, Sf9 membrane polyspecificity reagent, FACS + sequencing; frameworks hold sequencing errors
measured.parameter: polyreactivity (PSR sort gate)

* QVQLVESGGGLVQAGGSLRLSCAASGLTFGGYAMGWYRQAPGKERELVAAISRSGGSTYYADSVKGRFTISRDNAKNTVYLQMNSLKPEDTAVYYCAAVLSVRVYGYDYWGQGTQVTVSS | low polyreactivity
* QVQLVESGGGLVQAGGSLRLSCAASGRTIQTYAMGWYRQAPRKERELVAAITSSGGSTYYADSVKGRFTISRDNAKNTVYLQMNSLIPEDSAVYYWSAYRRIRVGVPVRTYYYWGQGTQVTVSS | high polyreactivity
* QVQLVESGGGLVQAGGSLRLSCAASGITFRRYTMGWYRQAPGKERELVATISLSDGNTYYADSVKGRFTISRDNAKNTVYLQMNSLKPEDTAVYYCNALHTWHQTYYYWGQGTQVTVSS | low polyreactivity
* QVQLVESGGGLVQAGGSLRLSCAASGFTFWRNAMGLYRQAPGKERELDAAISWRGGSTYYADCVKGRFTISRDNAKNTVYFQMNSLKPEDTAVYYCNVVYFRYYSGEFDYWGQGTQVTVSS | high polyreactivity
* QVQLEESGGGLVQAGGSLRLSCAATGFIFRGYAMGWYRPAPGKERELVAAITSSGGDTYYADSVKGRFTISRDNAKNTVYLQMNSLKPEDTAVYYCNARDYASGTEGDYWGQGTQVTVSS | low polyreactivity

* * *

# assay.summary: yeast display, Sf9 membrane polyspecificity reagent, FACS + sequencing; frameworks hold sequencing errors
measured.parameter: polyreactivity (PSR sort gate)

- QVQLVESGGGLDQAGGSLRLSCAASGSIFRRYTMGWYRQAPGKERELVAAISRVGNTNYADSVKGRITISRDNAKNTVYFQMNSLKPEDTEVYYCAARAIGYRYTPGLNYWGQGTQVTVSS: high polyreactivity
- QVQLVESGGGLVQAGGSLRLSCAASGRIRPRNAMGWYRQAPGKERELVAGISSDGSTNYADSVKGRFTISRDNAKNTVYLQMNSLKQEDTAVYYCAADGVYDPNLYGYWGQGTQLTVSS: low polyreactivity
- QVQLVESAGGLVQAGGSLSLSCAASGINFAWYVMGWYRQEPGKERELVAAITQSGGSTFYADSVKGRFTISRDNAKNTVYLQMNSLKPEDTAVYYCAAESRSTWIHSRDYWGQGTQVTVSS: low polyreactivity
- QVQLVESGGGLVQAGGSLRLSCAASGRTFGAYAMGWYRQAPGKERELVAAISSSGGSTYYADSLKGRFTISRDNAKNTVYLQMNSLKPEDTAVYYCAKGWHRGVGFGYWGQGTQVTVSS: high polyreactivity
- QVQLVESGGGLDQAGGSLRLSCAASGRIFYYYPMGWYRQAPGKERELVAGIDSGDSTNYADSVKGRFTITRDNAKNTVYLQINSLKPEDTAVYYCAALHYGGYFSYYPYYYWGQGTQATVSS: low polyreactivity

* * *

# assay.summary: yeast display, Sf9 membrane polyspecificity reagent, FACS + sequencing; frameworks hold sequencing errors
measured.parameter: polyreactivity (PSR sort gate)

• QVQLVESGGGLVQAGGSLRLSCAASGSTFGPNGMGWYRQAPGKERELVARIDRIGGGTYYADSVKGRFTISRDNAKNTVYLQMNSLKPEDTAVYSCAADGPSPFIQGYAKGDYWGQGTQVTVSS = low polyreactivity
• QVQLVESGGALVQAGASLRLSCAASGFTFWDYAMGWYRQAPGKERELVAAISDNDGSTDYADSVKGRFTISRDIAKNSVYLQMNSLKPEDTAVYSCNAEIELPSKVGDYWGQGTLVTVSS = low polyreactivity
• QVHLVESGGGLVQAGGSLRLSCAASGFTFVRYAMGWYRQAPGKERELVASISYSGGSTYYADSVKGRFTISRDNAKNTVYVQMNSLKPEATAVYYCAAVIYRGYYYWGQGTQVTVSS = high polyreactivity
• QVQLVESGGGLVQAGGSLRLSFAASGRIFRSYAMGWYRQAPGKERELVAAITSGGSTYYADSVKGRFTISRDNAKNTVYLQLNSLKPEDTAVYYCNADYDVSSPRPAFDYWGQGTQVTVSS = low polyreactivity
• QVQLVESGGGLVQAGGSLRLSCAASGGTFSAYAMGWYRQAPGKERELVAAISYRGGRTYYADSVKGRFTISRDNAKNTVYLQMNSLKPEDTAVYYCNARRGSATHSVTARRGYWGQGTQVTVSS = high polyreactivity

* * *

# assay.summary: yeast display, Sf9 membrane polyspecificity reagent, FACS + sequencing; frameworks hold sequencing errors
measured.parameter: polyreactivity (PSR sort gate)

• QVQLVESGGGLVQAGGSLRLSCAASGRIFLRYAMGWYRQAPGKERELVAVITWSGGSTNYADSVKGRFTISRDNAKNTVYLQMNSLKREDTAVYYCAVDNTGRSWPYDYWGQGTQVTVSS = low polyreactivity
• QVQLVESGGGLVQAGGSLRLSCAASGFNFGYYAMGWYRQAPGKERELVAAITSRGGSTYYADSVKGRFTISRDNAKNTDYLQMNSLKPEDTAVYYLAAYSQYLKRDYWGQGTQVTVSS = high polyreactivity
• QDQLVESGGGLVQAGGSLRLSCAASGRTFYANAMGWNRQAPGKERELVAAISSSDDITYYADSVKGRFTNSRDNAKNTVYLQINSMKPEDTAVYYCAAEEYIVTYSGFWQEYEYWGQGTQVTVSS = high polyreactivity
• QVQLQESGGGLVQAGGSLRLSCAASGTISDRAGMGWYRQAPAKNAIVATIDRGTNTNYADSVKGRFTISRDNAKNPVYLKMNSLKPEDTAVYNWAADGRYYIYLDYWGQGTQVTVSS = low polyreactivity
• QVQLVESGGGLVQAGGSLRLSCAASGSTFKSYAMGWYRQAPGKERELVAAITHRGSTYYADSVKGRFTISRDNAKNTVYLQMNSLKPEDTAVYYCNVRRIGNGRRVDYWGQGTQVTVSS = high polyreactivity
• QVQLEESGGGLVQAGGSLRLSCAASGSTFNYYAMGWYRTATGKERELVAAITGSGTSTYYADSVKGRFTISRDNAKNTVYLQMNSLKPEDTAVYYCNARYRPRQRPEGGYWGQGTQVTVSS = high polyreactivity
• QVQLVESGGGLVQAGGSLRLSCAASGRIFYYNSMGWYREAPGKERELVAAIRSGGGSTYYADSVKGRFTISRDNAKNTVYLQMNSLKPEDTAVYYCAAEPSQRYPWSGYDYWGQGTQVTVSS = low polyreactivity
• QVQLVESGGGLVQAGGSLRLSCAASGFTFGYYAKGWYRQAPGKERELVAGISRGGRTNYADSVKGRFTISRDNAKNTVYLQMNSLKPEDTAVYYCAKDTYYPSSRYNRYYYWGQGSQVTVSS = high polyreactivity
• QVQLVESGGGLVQAGGSLRLSCAASGSTFYSYAIGWYRQAPGKERELVADISYSDGSTYYADSVKGRFTISRDYAKNTVYLQMNSLKPEDTAVYYCDAYALSYFKIMDYWGQGTQVTVSS = low polyreactivity
• QVQLVESGGGLVQAGGSLRLSCAASGRTLGFYAMGWYRQAPGKEREFVAAISSSVGRTYYADSVKGRFTISRDNAKNTVYLQMNSLKPEDTAVYYCAADRTDTSNYWGQGTQVTVSS = high polyreactivity
• QVQLVESGGGLVQAGGSLRLSCAASGSTFTYYAMGWYRQAPGNEREFVASLTYRGGRTNYADSVKGRFTISRDNATNTVYLQMNRQKPEDTAVYYCAARQRWTYAYDYWGQGTQVTVSS = high polyreactivity

* * *

# assay.summary: yeast display, Sf9 membrane polyspecificity reagent, FACS + sequencing; frameworks hold sequencing errors
measured.parameter: polyreactivity (PSR sort gate)

• QVQLVESGGGLVQAGGSLRLSCAASGFTFETYAMGWNRQAPGKERELVASISRSGGRTYYADSVKGRFTISRDNAKNTVYLQMNSLKPDDTAVYYCAAGYYVRYGRRPTGYGGYDYWGQGTQVTVSS = high polyreactivity
• QVQLVESGGGLVQAGGSLRLSCAASGSTFAYYAMGWYRQAPGKERELVAAISRTGGSTYYADSVKGRFTISRDNAKNTVYLQMNSLKPEDTAVYYCNARAPVGTFDYDYWGQGTQVTVSS = low polyreactivity
• QDQLVESGGGLVQAGGSLRLSCAASGFNFRYYAMGWYRQAPGKERELVAAISSGGRTSYADSVKGRFTISRDNAKNTVYLQMNSLKPEDTAVYYCAADRWRGLFYYGNDYWGQGTQVTVSS = high polyreactivity
• HVQLVESGGGLVQAGGSLRVSCAASGRIFYYCARGWYGQAPGKEWELVAAITWSGGSTYYADSLMGRFTISRDNANNTVYVHKNSLKPEDPAVAYCTKSAAITGNGQMDYWGQCTQVTVSS = low polyreactivity
• QVQLVESGGGLVQAGGSLRLSCAASGITLSTYAMGWYRPAPGKERELVATITGNGDRTYYADSVKGRFTISRDNAKNTVYLQMNSLKPEDTAVYYCAKDSPGDGIGYGYWGQGTQVTVSS = low polyreactivity
